# Test system: Mus musculus
# Assay Info: Analgesic activity in sc dosed mouse by hot-plate method
# Assay type: functional
# Conditions: Mus musculus, sc; read-out: ED50
Bucketed by reported ED50, buckets being range A = under 4 mg/kg, range B = from 4 mg/kg up to 10 mg/kg, range C = 10 mg/kg and over

Exercise: read the entry CC1N(CCc2ccccc2)C2CCCC1(c1cccc(O)c1)C2.Cl (racemic) and state which class it falls under.
range A

Exercise: read the entry Br.C[C@H]1N(C)[C@H]2CCC[C@]1(c1cccc(O)c1)C2 and state which class it falls under.
range A

Exercise: read the entry CN1C[C@]2(c3cccc(O)c3)CCC[C@H]1C2 and state which class it falls under.
range A

Exercise: read the entry CC(=O)Oc1cccc(C23CCCC(C2)N(C)C3C)c1.Cl (racemic) and state which class it falls under.
range A

Exercise: read the entry COc1cccc(C23CCCC(C2)N(CCCC(=O)c2ccc(F)cc2)C3)c1.Cl (racemic) and state which class it falls under.
range B

Exercise: read the entry CC1N(C)C2CCCC1(c1ccccc1)C2.Cl (racemic) and state which class it falls under.
range C

Exercise: read the entry COc1ccc2c3c1O[C@H]1[C@@H](O)C=C[C@H]4[C@@H](C2)N(C)CC[C@@]341.COc1ccc2c3c1O[C@H]1[C@@H](O)C=C[C@H]4[C@@H](C2)N(C)CC[C@@]341.O.O=P(O)(O)O.O=P(O)(O)O [CODEINE PHOSPHATE] and state which class it falls under.
range B

Exercise: read the entry CN1C[C@@]2(c3cccc(O)c3)CCC[C@@H]1C2 and state which class it falls under.
range C

Exercise: read the entry CCOC(=O)C1(c2ccccc2)CCN(C)CC1.Cl [MEPERIDINE HYDROCHLORIDE] and state which class it falls under.
range B

Exercise: read the entry CC1N(CC2CC2)C2CCCC1(c1cccc(O)c1)C2.Cl (racemic) and state which class it falls under.
range B

Exercise: read the entry CN1CC[C@]23c4c5ccc(O)c4O[C@H]2[C@@H](O)C=C[C@H]3[C@H]1C5.Cl [MORPHINE HYDROCHLORIDE] and state which class it falls under.
range A

Exercise: read the entry Br.CC1N(C)C2CCCC1(c1cccc(O)c1)C2 (racemic; 8) and state which class it falls under.
range B

Exercise: read the entry CN1CC2(c3cccc(O)c3)CCCC1C2 (racemic) and state which class it falls under.
range C

Exercise: read the entry CC(C)=CCN1CCC2(C)c3cc(O)ccc3CC1C2C.Cl (stereo unspecified) [PENTAZOCINE HYDROCHLORIDE] and state which class it falls under.
range C
